assay: Tmax in KK-AY/Ta mouse at 100 mg/kg, po; format: ADME, organism-based; details: in vivo
Attribute Measured: Tmax (min)
Number only, in min; omit the unit.

Query: Data request, read-out Tmax, for COc1cc(CN(C)C(=O)c2c(OCCCC3CCN(C(=O)OC4(C)CC4)CC3)c3cccnc3n(C)c2=O)cc(C(F)(F)F)c1
Reply: 49.8

====

experiment: AUC (0 to 24 hrs) in KK-AY/Ta mouse at 100 mg/kg, po; assay type: ADME, organism-based; set-up: dose 100 mg/kg, time < 24 hr, route oral; conditions: in vivo
Attribute Measured: AUC(0-t) at 24 h (ng·h/mL)
// units = ng·h/mL; emit number, no label

Query: Recorded AUC(0-t) at 24 h for COc1cc(CN(C)C(=O)c2c(OCCCC3CCN(C(=O)OC4(C)CC4)CC3)c3cccnc3n(C)c2=O)cc(C(F)(F)F)c1 , please?
Reply: 18000

====

test: MRT in KK-AY/Ta mouse at 100 mg/kg, sc; assay type: ADME, organism-based; settings: in vivo
Attribute Measured: MRT (h)
Write the number in h without appending the unit.

Query: Quick one: MRT for COc1cc(CN(C)C(=O)c2c(OCCCC3CCN(C(=O)OC4(C)CC4)CC3)c3cccnc3n(C)c2=O)cc(C(F)(F)F)c1 ?
Reply: 9.4

====

pIC50 by entry:
biological target: Phosphatidylcholine:ceramide cholinephosphotransferase 1 (Homo sapiens); test: Inhibition of human recombinant C-terminal FLAG-tagged SMS1 expressed in mammalian expression system using C14-phosphatidylcholineD72 and C17-ceramide pre-incubated for 60 mins followed by incubation with substrate for 30 mins measured by RapidFire/MS assay
Sequence (Q86VZ5 whole entry): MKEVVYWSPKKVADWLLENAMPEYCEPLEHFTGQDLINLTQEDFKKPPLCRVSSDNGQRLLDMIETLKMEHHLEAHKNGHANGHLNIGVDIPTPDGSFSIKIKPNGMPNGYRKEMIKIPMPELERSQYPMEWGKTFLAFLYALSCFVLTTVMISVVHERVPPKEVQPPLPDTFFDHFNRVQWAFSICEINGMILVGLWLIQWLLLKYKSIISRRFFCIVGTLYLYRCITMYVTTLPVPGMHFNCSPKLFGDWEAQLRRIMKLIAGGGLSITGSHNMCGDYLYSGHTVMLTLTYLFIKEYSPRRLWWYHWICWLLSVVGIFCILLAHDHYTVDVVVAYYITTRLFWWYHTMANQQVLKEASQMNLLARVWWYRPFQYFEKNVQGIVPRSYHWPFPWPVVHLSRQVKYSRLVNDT
Convention used: pIC50 is expressed as -log10 of the molar concentration.

COc1cc(CN(C)C(=O)c2c(OCCCC3CCN(C(=O)OC(C)(C)C)CC3)c3ccccc3n(C)c2=O)cc(OC)c1    4.72
CN(Cc1cc(C(F)(F)F)cc(C(F)(F)F)c1)C(=O)c1c(N2CCC(OCc3ccccc3)C2)c2ccccc2n(C)c1=O (configuration not stated)    4.82
CN(Cc1cc(C(F)(F)F)cc(C(F)(F)F)c1)C(=O)c1c(OCCCC(F)(F)F)c2ccccc2n(C)c1=O    4.60
CCOc1cc(CN(C)C(=O)c2c(OCCCC3CCN(C(=O)OC(C)(C)C)CC3)c3ccccc3n(C)c2=O)cc(OCC)c1    4.82
CN(Cc1cc(C(F)(F)F)cc(C(F)(F)F)c1)C(=O)c1c(OCCCc2ccccc2)c2ccccc2n(C)c1=O    4.85

Query: Could you tell me which pIC50 is on file for CN(Cc1cc(C(F)(F)F)cc(C(F)(F)F)c1)C(=O)c1c(OCCCC2CCN(C(=O)OC(C)(C)C)CC2)c2ccccc2n(C)c1=O ?
Reply: 5.47

Query: Same again, this time with CN(Cc1cc(C(F)(F)F)cc(C(F)(F)F)c1)C(=O)c1c(OCCCC2CCCCC2)c2ccccc2n(C)c1=O
Reply: 4.85

Query: Another compound: CN(Cc1cc(C(F)(F)F)cc(C(F)(F)F)c1)C(=O)c1c(OCCOCc2ccccc2)c2ccccc2n(C)c1=O
Reply: 4.66

Query: Repeat with COc1cc(CN(C)C(=O)c2c(OCCCC3CCN(C(=O)OC4(C)CC4)CC3)c3cccnc3n(C)c2=O)cc(C(F)(F)F)c1
Reply: 5.62

Query: And the next one, COc1cc(CN(C)C(=O)c2c(OCCCC3CCN(C(=O)OC4(C)CC4)CC3)c3cccnc3n(C)c2=O)cc(OC)c1 ?
Reply: 4.74

Query: Same read-out for CN(Cc1cc(C(F)(F)F)cc(C(F)(F)F)c1)C(=O)c1c(OCCCC2CCN(C(=O)OC3(C)CC3)CC2)c2cccnc2n(C)c1=O ?
Reply: 6.07

Query: // next record COc1cc(CN(C)C(=O)c2c(OCCCC3CCN(C(=O)OC(C)(C)C)CC3)c3cccnc3n(C)c2=O)cc(OC)c1
Reply: 5.00
